Hey, just so you know, these numbers are from ChEMBL document CHEMBL1743141.

- test system: Solute carrier organic anion transporter family member 1B1 (Homo sapiens)
- Sequence (Q9Y6L6 whole entry): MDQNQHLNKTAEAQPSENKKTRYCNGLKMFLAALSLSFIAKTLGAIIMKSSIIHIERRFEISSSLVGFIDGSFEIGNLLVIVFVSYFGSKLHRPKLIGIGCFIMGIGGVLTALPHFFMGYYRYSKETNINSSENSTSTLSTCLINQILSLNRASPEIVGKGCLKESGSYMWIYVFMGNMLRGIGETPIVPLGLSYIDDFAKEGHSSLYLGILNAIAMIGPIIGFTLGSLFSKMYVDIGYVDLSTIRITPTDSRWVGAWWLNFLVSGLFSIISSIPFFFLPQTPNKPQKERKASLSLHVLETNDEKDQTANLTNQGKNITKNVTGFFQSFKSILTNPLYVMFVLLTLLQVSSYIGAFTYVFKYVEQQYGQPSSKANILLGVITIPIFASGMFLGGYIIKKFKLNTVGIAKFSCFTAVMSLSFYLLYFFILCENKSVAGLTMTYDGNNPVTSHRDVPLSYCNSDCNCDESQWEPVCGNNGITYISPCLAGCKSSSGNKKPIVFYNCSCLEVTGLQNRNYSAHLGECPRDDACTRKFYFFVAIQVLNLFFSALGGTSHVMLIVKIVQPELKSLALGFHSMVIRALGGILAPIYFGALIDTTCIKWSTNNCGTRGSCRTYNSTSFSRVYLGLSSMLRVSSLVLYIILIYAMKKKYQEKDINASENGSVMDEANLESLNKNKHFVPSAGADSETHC
- assay notes: Substrates of transporters of clinical importance in the absorption and disposition of drugs, OATP1B1
- Format: ADME
measured metric: Activity

INSERT INTO assay_data (molecule, observed) VALUES
  ('CCCc1nc(C(C)(C)O)c(C(=O)O)n1Cc1ccc(-c2ccccc2-c2nnn[nH]2)cc1 [OLMESARTAN]', 'transporter substrate'),
  ('CCOc1cc(CC(=O)N[C@@H](CC(C)C)c2ccccc2N2CCCCC2)ccc1C(=O)O [REPAGLINIDE]', 'transporter substrate'),
  ('C[C@]12CC[C@@H]3c4ccc(OS(=O)(=O)O)cc4CC[C@H]3[C@@H]1CCC2=O [ESTRONE SULFURIC ACID]', 'transporter substrate');
